This collection of values is drawn from patent US11623922B2.

// values below are reported half-life
assay: PK protocol, intravenous administration in rats; type: in vivo; details: rat, 1 mg/kg, male Sprague Dawley rats, plasma

C[C@@H](O)Cn1ccc(S(=N)(=O)NC(=O)Nc2c3c(cc4c2CCC4)CCC3)n1 (stereo partly drawn) [Example 3] :: 2.7 h

q: Bench note: what half-life did COc1cc(-c2ccc3c(c2NC(=O)NS(=N)(=O)c2nn(C(C)C)cc2Cl)CCC3)ccn1 (stereo not drawn) [Example 11] show?
a: 1 h

q: Bench note: what half-life did COc1cc(-c2ccc3c(c2NC(=O)NS(=N)(=O)c2ccn(C(C)C)n2)CCC3)ccn1 (racemic) [Example 14] show?
a: 0.9 h

----------
assay: PK protocol, intravenous administration in rats; type: in vivo; conditions: rat, 1 mg/kg, male Sprague Dawley rats, plasma
propertyMeasured: AUC (ng·h/mL)
# unit: ng·h/mL | format: bare number

COc1cc(-c2ccc3c(c2NC(=O)NS(=N)(=O)c2nn(C(C)C)cc2Cl)CCC3)ccn1 (stereo not drawn) :: 2720

q: Bench note: what AUC did COc1cc(-c2ccc3c(c2NC(=O)NS(=N)(=O)c2ccn(C(C)C)n2)CCC3)ccn1 (racemic) show?
a: 1740

q: Bench note: what AUC did C[C@@H](O)Cn1ccc(S(=N)(=O)NC(=O)Nc2c3c(cc4c2CCC4)CCC3)n1 (stereo partly drawn) show?
a: 2250

----------
// values below are reported IC50
biological target: NLRP3 (Homo sapiens, UniProt Q96P20); experiment: THP-1 cells pyroptosis assay; format: cell-based; design: Seed THP-1 cells (25,000 cells/well) containing 1.0 μg/ml LPS in 40 μl of RPMI medium; host or cells: THP-1 cells; conditions: NLRP3 inhibitory activity, 1.0 μg/ml LPS, nigericin 5 μM, resazurin readout
Sequence (Q96P20 whole entry): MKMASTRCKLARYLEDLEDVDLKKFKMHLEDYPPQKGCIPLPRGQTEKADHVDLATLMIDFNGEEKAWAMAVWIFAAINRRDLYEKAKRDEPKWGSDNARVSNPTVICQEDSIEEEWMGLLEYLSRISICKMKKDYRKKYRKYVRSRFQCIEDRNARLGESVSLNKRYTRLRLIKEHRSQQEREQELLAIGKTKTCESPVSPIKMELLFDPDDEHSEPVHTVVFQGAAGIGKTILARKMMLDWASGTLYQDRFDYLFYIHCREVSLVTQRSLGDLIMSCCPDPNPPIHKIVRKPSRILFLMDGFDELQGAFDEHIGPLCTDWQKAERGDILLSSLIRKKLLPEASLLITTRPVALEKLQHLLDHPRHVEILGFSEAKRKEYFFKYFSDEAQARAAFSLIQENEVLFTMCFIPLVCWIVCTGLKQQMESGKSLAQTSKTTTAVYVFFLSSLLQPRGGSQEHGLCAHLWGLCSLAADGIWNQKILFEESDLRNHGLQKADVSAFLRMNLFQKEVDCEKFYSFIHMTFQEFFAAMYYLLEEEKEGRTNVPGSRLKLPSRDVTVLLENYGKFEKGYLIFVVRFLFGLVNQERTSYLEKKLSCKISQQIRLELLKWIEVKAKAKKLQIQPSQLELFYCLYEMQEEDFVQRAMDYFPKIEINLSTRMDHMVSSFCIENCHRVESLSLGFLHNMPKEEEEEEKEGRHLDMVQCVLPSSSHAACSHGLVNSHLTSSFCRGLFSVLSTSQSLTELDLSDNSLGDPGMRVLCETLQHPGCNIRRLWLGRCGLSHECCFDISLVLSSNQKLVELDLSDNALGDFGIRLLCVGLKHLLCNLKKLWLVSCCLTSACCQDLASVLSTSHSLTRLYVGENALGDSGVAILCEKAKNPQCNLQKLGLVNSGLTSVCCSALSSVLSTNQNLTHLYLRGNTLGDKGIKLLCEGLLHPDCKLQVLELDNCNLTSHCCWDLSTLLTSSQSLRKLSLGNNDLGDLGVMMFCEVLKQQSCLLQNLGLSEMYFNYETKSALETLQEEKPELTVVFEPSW

Before answering, review these 6 worked examples.
COc1cc(-c2ccc3c(c2NC(=O)NS(=N)(=O)c2nn(C(C)C)cc2Cl)CCC3)ccn1 (centres unmarked) [Example 11] :: < 100 nM
COc1cc(-c2ccc3c(c2NC(=O)NS(=N)(=O)c2ccn(C[C@@H](C)O)n2)CCC3)ccn1 (some centres unmarked) [Example 17] :: < 100 nM
CC(C)c1cc(F)cc(-c2ccnc(C#N)c2)c1NC(=O)NS(=N)(=O)c1nn(C(C)C)cc1Cl (centres unmarked) [Example 12] :: < 100 nM
CC(C)n1cc(Cl)c(S(=N)(=O)NC(=O)Nc2c(-c3ccncc3)cc(F)c3c2CCC3)n1 (centres unmarked) [Example 26] :: < 100 nM
CN(C)CCn1ccc(S(=N)(=O)NC(=O)Nc2c3c(cc4c2CCC4)CCC3)n1 (centres unmarked) [Example 10] :: < 500 nM
COc1cc(-c2cc(F)cc(C(C)C)c2NC(=O)NS(=N)(=O)c2nn(C(C)C)cc2Cl)ccn1 (centres unmarked) [Example 13] :: < 100 nM

q: Bench note: what IC50 did CC(c1cc(S(=N)(=O)NC(=O)Nc2c3c(cc4c2CCC4)CCC3)nn1C)N1CCC1 (centres unmarked) [Example 22] show?
a: < 100 nM

q: Bench note: what IC50 did C[C@@H](O)Cn1ccc(S(=N)(=O)NC(=O)Nc2c(-c3ccncc3)cc(F)c3c2CCC3)n1 (some centres unmarked) [Example 25] show?
a: < 100 nM

q: Bench note: what IC50 did C[C@@H](O)Cn1ccc(S(=N)(=O)NC(=O)Nc2c3c(cc4c2CCC4)CCC3)n1 (some centres unmarked) [Example 3] show?
a: < 100 nM

q: Bench note: what IC50 did COc1cc(-c2ccc3c(c2NC(=O)N[S@@](=N)(=O)c2ccn(C(C)C)n2)CCC3)ccn1 [Example 27] show?
a: < 100 nM

q: Bench note: what IC50 did CC(C)c1cc(F)cc(-c2ccnc(C#N)c2)c1NC(=O)NS(=N)(=O)c1ccn(C(C)C)n1 (centres unmarked) [Example 15] show?
a: < 1000 nM

q: Bench note: what IC50 did CC(C)n1ccc(S(=N)(=O)NC(=O)Nc2c(-c3ccncc3)cc(F)c3c2CCC3)n1 (centres unmarked) [Example 24] show?
a: < 100 nM

q: Bench note: what IC50 did CC(C)n1cc(Cl)c(S(=N)(=O)NC(=O)Nc2c3c(cc4c2CCC4)CCC3)n1 (centres unmarked) [Example 2] show?
a: < 100 nM

q: Bench note: what IC50 did COc1cc(-c2cc(F)cc(C(C)C)c2NC(=O)NS(=N)(=O)c2ccn(C(C)C)n2)ccn1 (centres unmarked) [Example 16] show?
a: < 100 nM

q: Bench note: what IC50 did COc1cc(-c2cc(F)cc(C(C)C)c2NC(=O)NS(=N)(=O)c2ccn(C[C@@H](C)O)n2)ccn1 (some centres unmarked) [Example 19] show?
a: < 100 nM

q: Bench note: what IC50 did COc1cc(-c2ccc3c(c2NC(=O)NS(=N)(=O)c2ccn(C(C)C)n2)CCC3)ccn1 (racemic) [Example 14] show?
a: < 100 nM

q: Bench note: what IC50 did CC(C)N1CC(S(=N)(=O)NC(=O)Nc2c3c(cc4c2CCC4)CCC3)C1 (centres unmarked) [Example 7] show?
a: < 5000 nM
